Provenance of the data: patent US20230263907A1

details: 7 days
List of CE (complexation efficacy) values.

Consider the reported CE (complexation efficacy) for these compounds:
CNC(=O)c1ccccc1Sc1ccc2c(/C=C/c3ccccn3)n[nH]c2c1 [Axitinib]    0.0002
CC1(C)CNc2cc(NC(=O)c3cccnc3NCc3ccncc3)ccc21 [Motesanib]    0.0052
CNC(=O)c1cc(Oc2ccc(NC(=O)Nc3ccc(Cl)c(C(F)(F)F)c3)c(F)c2)ccn1 [Regorafenib]    0.00002
Cc1ccc(Nc2nccc(N(C)c3ccc4c(C)n(C)nc4c3)n2)cc1S(N)(=O)=O [Pazopanib]    0.00002

Moving on to the next compound.
Dear colleague, I am looking for the recorded CE (complexation efficacy) of the following compound: COc1cc2c(Oc3ccc4[nH]c(C)cc4c3F)ncnc2cc1OCCCN1CCCC1 [Cediranib]
0.0578
